- study-target: CB1 cannabinoid receptor (Rattus norvegicus)
- Construct: membranes were prepared from rat forebrain membranes; from tissue; host or cells: rat forebrain membranes
- Sequence (P20272 whole entry): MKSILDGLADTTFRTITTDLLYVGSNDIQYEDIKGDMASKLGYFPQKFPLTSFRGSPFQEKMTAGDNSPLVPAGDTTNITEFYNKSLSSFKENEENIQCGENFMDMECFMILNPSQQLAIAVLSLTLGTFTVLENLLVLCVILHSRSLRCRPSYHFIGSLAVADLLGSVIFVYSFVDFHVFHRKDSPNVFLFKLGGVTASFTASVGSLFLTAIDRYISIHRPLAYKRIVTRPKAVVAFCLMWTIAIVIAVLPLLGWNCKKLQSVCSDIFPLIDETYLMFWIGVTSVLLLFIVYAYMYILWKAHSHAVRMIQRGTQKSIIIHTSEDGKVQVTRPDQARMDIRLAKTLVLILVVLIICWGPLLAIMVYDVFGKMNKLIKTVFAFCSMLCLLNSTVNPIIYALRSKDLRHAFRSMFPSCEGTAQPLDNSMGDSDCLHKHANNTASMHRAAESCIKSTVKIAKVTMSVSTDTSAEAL
- assay: biochemical
- Type: binding
- assay-context: Table 10; CB1 over CB2 binding selectivity (ratio of Ki)
# Selectivity CB1 values compiled below
// no unit string in output, number only

Known Selectivity CB1 results, listed for orientation:
Cc1c(C(=O)NN2CCCCC2)nn(-c2ccc(Cl)cc2Cl)c1-c1ccc(C#CC2CC2)cc1 | 1.5
Cc1c(C(=O)NN2CCCCC2)nn(-c2ccc(Cl)cc2Cl)c1-c1ccc(C#Cc2ccncc2)cc1 | 52
Cc1c(C(=O)NN2CCCCC2)nn(-c2ccc(Cl)cc2Cl)c1-c1ccc(C#CCNC(=O)OC(C)(C)C)cc1 | 1.3

We now examine a further compound.
Input: // lookup Selectivity CB1 for `Cc1c(C(=O)NN2CCCCC2)nn(-c2ccc(Cl)cc2Cl)c1-c1ccc(C#CC(C)(C)C)cc1`
Output: 1
